FYI, the data here is from PubChem BioAssay (NCATS).

Would you kindly list activity, negative = inhibition for each of these molecules?
- experimentSummary: Stat Signaling Pathway (AID 446);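 note: ME-180 cervical cancer cells given 40 pM IL-6 alongside compound; SIE-controlled beta-lactamase reporter measured as 460/530 nm FRET emission ratio; % is set by controls: 0 for no effect and ±100 for the full control effect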
- testConditions: ME-180 (cervical carcinoma) SIE beta-lactamase reporter, IL-6 stimulated, 5 h; at 17.2 µM (top of the series) unless noted
Inconclusive results are not listed.
Give bare numbers, in %.

Examples with their reported activity, negative = inhibition follow.
{"columns": ["molecule", "activity, negative = inhibition, %"],
 "data": [
  ["COc1ccc(-c2c3c([nH]c(=S)c2C#N)CCC3)cc1", -7.04],
  ["Cc1cn2c(-c3ccncc3)nnc2s1", -2.66],
  ["CCn1c(-c2ccco2)n[nH]c1=S", 4.5],
  ["CCC[C@H]1C[C@H](C(=O)N[C@@H]([C@H]2O[C@@H](SC)[C@@H](O)[C@@H](O)[C@@H]2O)[C@H](C)Cl)N(C)C1", 1.36],
  ["CCOc1cccc(-c2nnc3sc(-c4cc(OC)c(OC)c(OC)c4)nn23)c1", -10.4]
]}

Please report activity, negative = inhibition for every entry that follows.
1. Cc1c(C(=O)O)c(=S)sn1CCOc1ccccc1
2. CCCN(CCC)C(=O)CC(c1ccc(F)cc1)c1ccco1 (stereo not drawn)
3. Cc1cc(=O)oc(C)c1C(=O)n1nc(C)c2c1C[C@@H]1[C@H]2C1(C)C
4. CCCSC1=C(C#N)C(c2ccc(OC)cc2)C2=C(CC(C)(C)CC2=O)N1 (stereo not drawn)
5. CCc1nc(SCc2cccnc2)c(C#N)cc1C

5.37
-3.11
-1.83
-13
0.873

Dear reader, for each entry below, please note its activity, negative = inhibition.
1. C/C(=N/n1cnnc1)c1cccnc1
2. Cc1cc(C)n(CC(=O)c2ccccc2)c(=O)c1C#N
3. O=C(CC(c1ccc(F)cc1)c1ccco1)N1CCCC1 (stereo not drawn)

1. 16.1
2. -3.77
3. -1.51
